- Test system: Severe acute respiratory syndrome-related coronavirus
- protocol: Inhibition of SARS coronavirus nsP13 helicase activity expressed in Escherichia coli Rosetta assessed inhibition of DNA unwinding activity at 10 uM by FRET assay
Activity calls are given as the source filed them. No rule for the calls is given here.
endpoint: inhibition

Here are 5 compounds together with their reported answers.
- compound: "C=C(C)C(C)CC[C@@H](C)[C@H]1CC[C@@]2(C)[C@@H]3CC[C@H]4C(C)(C)C(=O)CC[C@]4(C)C3=CC[C@]12C (some centres not stated)"
  testSystem: "Severe acute respiratory syndrome-related coronavirus"
  val: "inactive"
- compound: "COc1ccc(-c2oc3c(CC=C(C)C)c(O)cc(O)c3c(=O)c2O)cc1"
  testSystem: "Severe acute respiratory syndrome-related coronavirus"
  val: "inactive"
- compound: "O=c1cc(-c2ccc(O)c(-c3c(O)cc(O)c4c(=O)cc(-c5ccc(O)cc5)oc34)c2)oc2cc(O)cc(O)c12"
  testSystem: "Severe acute respiratory syndrome-related coronavirus"
  val: "inactive"
- compound: "O=c1c(O[C@@H]2O[C@H](CO)[C@H](O)[C@H](O)[C@H]2O)c(-c2ccc(O)c(O)c2)oc2cc(O)cc(O)c12"
  testSystem: "Severe acute respiratory syndrome-related coronavirus"
  val: "inactive"
- compound: "C[C@H]1[C@H](C)CC[C@]2(C(=O)O)CC[C@]3(C)C(=CC[C@@H]4[C@@]5(C)CC[C@H](O)C(C)(C)[C@@H]5CC[C@]43C)[C@H]12"
  testSystem: "Severe acute respiratory syndrome-related coronavirus"
  val: "inactive"

// inhibition value for O=C(O[C@H]1[C@@H]2C=CO[C@@H](O[C@@H]3O[C@H](CO)[C@@H](O)[C@H](O)[C@H]3O)[C@@H]2[C@@]2(CO)O[C@@H]12)c1ccc(O)c(O)c1 : inactive

// inhibition value for COc1ccc(C(=O)O[C@H]2[C@@H]3C=CO[C@@H](O[C@@H]4O[C@H](CO)[C@@H](O)[C@H](O)[C@H]4O)[C@@H]3[C@@]3(CO)O[C@@H]23)cc1OC : inactive

====

- Test system: Hepacivirus hominis
- protocol: Inhibition of HCV NS3 helicase ATP hydrolysis activity overexpressed in Escherichia coli BL21(DE3) assessed as inhibition of inorganic phosphate release by AM/MG-based colometric analysis in the presence of M13 ssDNA
Activity calls are given as the source filed them. The rule behind the calls is not given here.
endpoint: inhibition

- testSmiles: "Cc1cc(=O)c2c(O)c3c(cc2o1)OC(C)(C)[C@@H](O[C@H]1O[C@@H](CO)[C@H](O)[C@@H](O)[C@@H]1O)C3"
  val: "inactive"
- testSmiles: "O=C(O)[C@H]1O[C@@H](Oc2cc3oc(-c4ccc(O)cc4)cc(=O)c3c(O)c2O)[C@H](O)[C@@H](O)[C@@H]1O"
  val: "inactive"
- testSmiles: "COc1ccc(C(=O)O[C@H]2[C@@H]3C=CO[C@@H](O[C@@H]4O[C@H](CO)[C@@H](O)[C@H](O)[C@H]4O)[C@@H]3[C@@]3(CO)O[C@@H]23)cc1O"
  val: "inactive"
- testSmiles: "CC(C)=CCc1c(O)c(CC=C(C)C)c2oc3c(O)cccc3c(=O)c2c1O"
  val: "inactive"
- testSmiles: "O=C(/C=C/c1ccccc1)NCCCCNC(=O)c1ccc(O)cc1"
  val: "inactive"
- testSmiles: "CC(C)=CCC[C@](C)(O[C@@H]1O[C@H](CO[C@@H]2O[C@H](CO)[C@@H](O)[C@H](O)[C@H]2O)[C@@H](O)[C@H](O)[C@H]1O)[C@H]1CC[C@]2(C)[C@@H]1[C@H](O)C[C@@H]1[C@@]3(C)CC[C@H](O[C@@H]4O[C@H](CO)[C@@H](O)[C@H](O)[C@H]4O[C@@H]4O[C@H](CO)[C@@H](O)[C@H](O)[C@H]4O)C(C)(C)[C@@H]3CC[C@]12C"
  val: "inactive"

// inhibition value for C=C1CC[C@@H]2[C@H]([C@H]3[C@H]1CC[C@]3(C)O)C2(C)C : inactive

====

Task for the reader: assign each of the following compounds its reported inhibition.
- Test system: Severe acute respiratory syndrome-related coronavirus
- protocol: Inhibition of SARS coronavirus nsP13 ATP hydrolysis activity expressed in Escherichia coli Rosetta assessed as inhibition of inorganic phosphate release at 10 uM by AM/MG-based colometric analysis in the presence of M13 ssDNA
Just the number please, in %, no unit attached.

// inhibition value for C[C@H]1O[C@@H](Oc2c(-c3cc(O)c(O)c(O)c3)oc3cc(O)cc(O)c3c2=O)[C@@H](O)[C@@H](O)[C@@H]1O : 20

// inhibition value for O=c1cc(-c2ccc(O)c(-c3c(O)cc(O)c4c(=O)cc(-c5ccc(O)cc5)oc34)c2)oc2cc(O)cc(O)c12 : 20

// inhibition value for CC1(C)CC[C@]2(C)CC=C3[C@]4(C)CC[C@H]5C(C)(C)[C@@H](O)CC[C@]5(C)[C@H]4CC[C@@]3(C)[C@@H]2C1 : 20

====

- Test system: Hepacivirus hominis
- protocol: Inhibition of HCV NS3 helicase ATP hydrolysis activity overexpressed in Escherichia coli BL21(DE3) assessed as inhibition of inorganic phosphate release by AM/MG-based colometric analysis in the presence of M13 ssDNA
The source made the active and inactive calls. How the calls were made is not given here.

- compound: "COc1c2c(cc3oc(C)cc(=O)c13)OC(C(C)(C)O)C2 (stereo not drawn)"
  inhibition: "inactive"
- compound: "C=CCc1cc(OC)c(O)c(OC)c1"
  inhibition: "inactive"
- compound: "COc1ccc(-c2cc(=O)c3c(O)cc(O[C@H]4O[C@@H](CO)[C@H](O)[C@@H](O)[C@@H]4O)cc3o2)cc1O"
  inhibition: "inactive"

====

- Tested on: Hepacivirus hominis
- protocol: Inhibition of HCV NS3 helicase overexpressed in Escherichia coli BL21(DE3) assessed as inhibition of DNA unwinding activity at 10 uM by FRET assay
Activity calls are given as the source filed them. How the calls were made is not given here.
endpoint: inhibition

- testSmiles: "CC(C)=CCC[C@](C)(O[C@@H]1O[C@H](CO[C@@H]2O[C@H](CO)[C@@H](O)[C@H](O)[C@H]2O)[C@@H](O)[C@H](O)[C@H]1O)[C@H]1CC[C@]2(C)[C@@H]1[C@H](O)C[C@@H]1[C@@]3(C)CC[C@H](O[C@@H]4O[C@H](CO)[C@@H](O)[C@H](O)[C@H]4O)C(C)(C)[C@@H]3CC[C@]12C"
  endpoint: "inhibition"
  val: "inactive"
- testSmiles: "COc1c2c(cc3oc(CO[C@@H]4O[C@H](CO)[C@@H](O)[C@H](O)[C@H]4O)cc(=O)c13)O[C@H](C(C)(C)O)C2"
  endpoint: "inhibition"
  val: "inactive"
- testSmiles: "O=c1c(-c2ccc(O)cc2)coc2cc(O[C@@H]3O[C@H](CO)[C@@H](O)[C@H](O)[C@H]3O)ccc12"
  endpoint: "inhibition"
  val: "inactive"

====

- Tested on: Hepacivirus hominis
- protocol: Inhibition of HCV NS3 helicase ATP hydrolysis activity overexpressed in Escherichia coli BL21(DE3) assessed as inhibition of inorganic phosphate release by AM/MG-based colometric analysis in the presence of M13 ssDNA
Activity calls are given as the source filed them. How the calls were made is not given here.
endpoint: inhibition

- testSmiles: "C/C=C(/C)C(=O)O[C@H]1Cc2c(cc3oc(CO)cc(=O)c3c2O)OC1(C)C"
  endpoint: "inhibition"
  val: "inactive"
- testSmiles: "O=c1cc(-c2ccccc2)oc2cc(O)c(O)c(O)c12"
  endpoint: "inhibition"
  val: "inactive"
- testSmiles: "CC(C)=CCc1c(O)cc2oc3cc(O)c(O)c(CC=C(C)C)c3c(=O)c2c1O"
  endpoint: "inhibition"
  val: "inactive"
- testSmiles: "COc1ccc(/C=C/C(=O)O[C@H]2[C@@H]3C=CO[C@@H](O[C@@H]4O[C@H](CO)[C@@H](O)[C@H](O)[C@H]4O)[C@@H]3[C@@]3(CO)O[C@@H]23)cc1O"
  endpoint: "inhibition"
  val: "inactive"
- testSmiles: "O=c1cc(-c2ccccc2)oc2cc(O)cc(O)c12"
  endpoint: "inhibition"
  val: "inactive"

Record C=C(C)[C@@H](C)CC[C@@H](C)[C@H]1CC[C@@]2(C)[C@@H]3CC[C@H]4C(C)(C)C(=O)CC[C@]4(C)C3=CC[C@]12C / Hepacivirus hominis, inhibition recorded as inactive

Record COc1c(O)cc2oc3cc(O)c(CC=C(C)C)c(O)c3c(=O)c2c1CC=C(C)C / Hepacivirus hominis, inhibition recorded as inactive

Record COc1c2c(cc3oc(CO[C@@H]4O[C@H](CO)[C@@H](O)[C@H](O)[C@H]4O)cc(=O)c13)O[C@H](C(C)(C)O)C2 / Hepacivirus hominis, inhibition recorded as inactive

====

- Tested on: Hepacivirus hominis
- protocol: Inhibition of HCV NS3 helicase overexpressed in Escherichia coli BL21(DE3) assessed as inhibition of DNA unwinding activity at 10 uM by FRET assay
Active and inactive are the calls of the source. The rule behind the calls is not given here.
endpoint: inhibition

- testSmiles: "CC1(C)CC[C@]2(C(=O)O)CC=C3[C@]4(C)CC[C@H]5C(C)(C)[C@@H](O)CC[C@]5(C)[C@H]4CC[C@@]3(C)[C@@H]2C1"
  endpoint: "inhibition"
  val: "inactive"
- testSmiles: "CC(C)=CCC[C@](C)(O[C@@H]1O[C@H](CO[C@@H]2O[C@H](CO)[C@@H](O)[C@H](O)[C@H]2O)[C@@H](O)[C@H](O)[C@H]1O)[C@H]1CC[C@]2(C)[C@@H]1[C@H](O)C[C@@H]1[C@@]3(C)CC[C@H](O[C@@H]4O[C@H](CO)[C@@H](O)[C@H](O)[C@H]4O[C@@H]4O[C@H](CO)[C@@H](O)[C@H](O)[C@H]4O)C(C)(C)[C@@H]3CC[C@]12C"
  endpoint: "inhibition"
  val: "inactive"
